Recorded kon, one value per entry.
- tested target: FcRn (Acro Biosystems) (human, UniProt P55899 24-297; P61769 21-119)
- Sequence (P55899 24-297 limits assumed, chain 1 of 2): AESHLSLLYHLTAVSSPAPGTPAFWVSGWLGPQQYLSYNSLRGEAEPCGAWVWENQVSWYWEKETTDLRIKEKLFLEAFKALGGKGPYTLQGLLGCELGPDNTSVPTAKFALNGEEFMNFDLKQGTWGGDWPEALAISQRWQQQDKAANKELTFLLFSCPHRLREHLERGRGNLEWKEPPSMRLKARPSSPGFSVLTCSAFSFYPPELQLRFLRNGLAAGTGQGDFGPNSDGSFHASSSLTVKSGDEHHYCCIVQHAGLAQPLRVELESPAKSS
- Sequence (P61769 21-119 limits assumed, chain 2 of 2): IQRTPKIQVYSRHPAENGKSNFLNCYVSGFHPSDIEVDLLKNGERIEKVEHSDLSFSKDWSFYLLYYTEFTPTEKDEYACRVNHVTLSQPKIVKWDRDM
- assay details: BLI (Fortebio), FcRn loaded on HIS1K probe, pH 7.0
Lab book: enter the figure in M⁻¹ s⁻¹, no units written.

Fc variant m11 (other, N-glycan with 2,6-sialic acid (variant co-expressed with human GT and ST in ExpiCHO-S cells), Fc fragment variant of IgG1) DKTHTCPPCPAPELLGGPSVFLFPPKPKDTLYITREPEVTCVVVDVSHEDPEVKFNWYVDGVEVHNAKTKPREEQYNSTARVVSVLTVLHQDWLNGKEYKCKVSNKALPAPIEKTISKAKGQPREPQVYTLPPSRDELTKNQVSLTCLVKGFYPSDIAVEWESNGQPENNYKTTPPVLDSDGSFFLYSKLTVDKSRWQQGNVFSCSVMHEALKFHYTQKSLSLSP    38300

Consider the binder Fc variant m9 (other, Fc fragment variant of IgG1, co-expressed with human GT and ST) DKTHTCPPCPAPELLGGPSVFLFPPKPKDTLYITREPEVTCVVVDVSHEDPEVKFNWYVDGVEVHNAKTKPREEQNASTYRVVSVLTVLHQDWLNGKEYKCKVSNKALPAPIEKTISKAKGQPREPQVYTLPPSRDELTKNQVSLTCLVKGFYPSDIAVEWESNGQPENNYKTTPPVLDSDGSFFLYSKLTVDKSRWQQGNVFSCSVMHEALKFHYTQKSLSLSP and give its measured kon. 208000

Could you tell me which kon is on file for Fc variant m10 (other, Fc fragment variant of IgG1, co-expressed with human GT and ST) DKTHTCPPCPAPELLGGPSVFLFPPKPKDTLYITREPEVTCVVVDVSHEDPEVKFNWYVDGVEVHNAKTKPREEQYNNASRVVSVLTVLHQDWLNGKEYKCKVSNKALPAPIEKTISKAKGQPREPQVYTLPPSRDELTKNQVSLTCLVKGFYPSDIAVEWESNGQPENNYKTTPPVLDSDGSFFLYSKLTVDKSRWQQGNVFSCSVMHEALKFHYTQKSLSLSP ? 221000

Find the recorded kon belonging to Fc variant m8 (other, Fc fragment variant of IgG1, co-expressed with human GT and ST) DKTHTCPPCPAPELLGGPSVFLFPPKPKDTLYITREPEVTCVVVDVSHEDPEVKFNWYVDGVEVHNAKTKPREEQANSTYRVVSVLTVLHQDWLNGKEYKCKVSNKALPAPIEKTISKAKGQPREPQVYTLPPSRDELTKNQVSLTCLVKGFYPSDIAVEWESNGQPENNYKTTPPVLDSDGSFFLYSKLTVDKSRWQQGNVFSCSVMHEALKFHYTQKSLSLSP and report it. 115000

Could you tell me which kon is on file for Fc variant m6 (other, N-glycan with 2,6-sialic acid (variant co-expressed with human GT and ST in ExpiCHO-S cells), Fc fragment variant of IgG1) DKTHTCPPCPAPELLGGPSVFLFPPKPKDTLYITREPEVTCVVADVSHEDPEVKFNWYVDGVEVHNAKTKPREEQYNSTYRVVSVLTVLHQDWLNGKEYKCKVSNKALPAPIEKTISKAKGQPREPQVYTLPPSRDELTKNQVSLTCLVKGFYPSDIAVEWESNGQPENNYKTTPPVLDSDGSFFLYSKLTVDKSRWQQGNVFSCSVMHEALKFHYTQKSLSLSP ? 212000

Origin of measurements: patent US20250043026A1
